test system: CP329; assay: qHTS profiling for inhibitors of Plasmodium falciparum proliferation (AID 504749); further: nearly all actives have a fitted effect of over 60% in size; settings: P. falciparum in erythrocytes, SYBR Green DNA, 72 h; series mostly up to 28.7 µM
Inconclusive results are not listed. The source made the active and inactive calls. The call rests on the fitted dose curve; in most records, active means well fitted inhibition curve with a large enough effect; inconclusive means small, poorly fitted or top-dose-only effect; inactive means flat fitted curve, though single readings scatter.
measuredQuantity: outcome

Would you please look over these solved cases?
- Cc1cc(=O)n(-c2ccccc2)n1C: inactive
- CCN(CCCc1ccccc1)CCCc1ccccc1: inactive
- C#C[C@]1(O)CC[C@H]2[C@@H]3CCc4cc(OC5CCCC5)ccc4[C@H]3CC[C@@]21C: inactive
- Cc1cccc(C)c1NC(=O)CN1CCN(CCCC(c2ccc(F)cc2)c2ccc(F)cc2)CC1: inactive
- NC(CS)C(=O)O (configuration not stated): inactive
- CC(=O)N(O)CCCCCNC(=O)CCC(=O)N(O)CCCCCNC(=O)CCC(=O)N(O)CCCCCN: inactive
- CC(C)(Oc1ccc(Cl)cc1)C(=O)O: inactive
- O=C(O)c1cc2cc(Cc3cccnc3)ccc2o1: inactive
- COc1c2occc2c(OC)c2c(=O)cc(C)oc12: inactive
- O=C(COc1ccc(Cl)cc1)N1CCN(Cc2ccc3c(c2)OCO3)CC1: inactive

In plain terms, CC(=O)OCC(=O)[C@@]1(OC(C)=O)[C@@H](C)C[C@H]2[C@@H]3C[C@H](F)C4=CC(=O)C=C[C@]4(C)[C@@]3(F)[C@@H](O)C[C@@]21C has a documented outcome of inactive

In plain terms, O=C1OC(c2ccc(O)cc2)(c2ccc(O)cc2)c2ccccc21 has a documented outcome of inactive

###

experiment: qHTS of pediatric cancer cell lines to identify multiple opportunities for drug repurposing: Primary screen for NB1643 cells (AID 1347099); conditions: NB1643 neuroblastoma viability, CellTiter-Glo luminescence, 48 h; series mostly up to 46 µM; further: nearly all actives have a fitted effect of over 50% in size
Inconclusive results are not listed. Active and inactive are the calls of the source. The call rests on the fitted dose curve; in most records, active means well fitted cell-killing curve with a large enough effect; inconclusive means small, poorly fitted or top-dose-only effect; inactive means no such curve, though single readings can be large or run the other way.
measuredQuantity: outcome

Would you please look over these solved cases?
• CCOC(=O)OC(C)OC1=C(C(=O)Nc2ccccn2)N(C)S(=O)(=O)c2ccccc21 (stereo unspecified) = inactive
• CCCCCCc1ccc(O)cc1O = inactive
• C=CCc1ccc(O)c(OC)c1 = inactive
• O=C1c2ccccc2C(=O)C1c1ccccc1 = inactive
• Cc1cc2c(cc1CC(=O)c1sccc1S(=O)(=O)Nc1onc(C)c1Cl)OCO2 = inactive

Kindly review the next compound as well.
In plain terms, CC(=O)OCC(=O)NCCCOc1cccc(CN2CCCCC2)c1 has a documented outcome of inactive

###

tested on: PAD; experiment: qHTS profiling for inhibitors of Plasmodium falciparum proliferation (AID 504749); further: nearly all actives have a fitted effect of over 60% in size; details: P. falciparum in erythrocytes, SYBR Green DNA, 72 h; series mostly up to 28.7 µM
Results filed as inconclusive are left out. Activity calls are given as the source filed them. The call rests on the fitted dose curve; in most records, active means well fitted inhibition curve with a large enough effect; inconclusive means small, poorly fitted or top-dose-only effect; inactive means flat fitted curve, though single readings scatter.
// one of active, inactive, no free text

// below: answered compounds
• CN(C)CCCOc1nn(Cc2ccccc2)c2ccccc12 = inactive
• CC(C)(C)CC(C)(C)c1ccc(OCCOCC[N+](C)(C)Cc2ccccc2)cc1 = active
• CCOc1ccc(NC(=O)CC(C)O)cc1 (configuration not stated) = inactive
• N[C@H](Cc1c[nH]c2ccccc12)C(=O)O = inactive
• C1CCc2nnnn2CC1 = inactive
• C[C@]12CC[C@@H]3c4ccc(O)cc4CC[C@H]3[C@@H]1CC[C@@H]2O = inactive

Look up the recorded call for CCCCCCc1ccc(O)cc1O in this test.
inactive

Look up the recorded call for CC(O)(P(=O)(O)O)P(=O)(O)O in this test.
inactive

Look up the recorded call for NC(CO)(CO)CO in this test.
inactive

Look up the recorded call for C#C[C@]1(OC(C)=O)CC[C@H]2[C@@H]3CCC4=C[C@@H](OC(C)=O)CC[C@@H]4[C@H]3CC[C@@]21C in this test.
inactive

Look up the recorded call for O=c1ccc2ccccc2o1 in this test.
inactive

Look up the recorded call for CC[N+](CC)(CCNC(=O)C(=O)NCC[N+](CC)(CC)Cc1ccccc1Cl)Cc1ccccc1Cl in this test.
active

###

assay: S16 Schwann cell PMP22 intronic element firefly luciferase assay (AID 624032); conditions: S16 rat Schwann cells, PMP22 element FLuc, 24 h; series mostly up to 57.5 µM; further: nearly all actives have a fitted effect of over 30% in size
Inconclusive results are not listed. The source made the active and inactive calls. The call rests on the fitted dose curve; in most records, active means well fitted inhibition curve with a large enough effect; inconclusive means small, poorly fitted or top-dose-only effect; inactive means no such curve, though single readings can be large or run the other way.
// one of TRUE (active), FALSE (inactive), no free text

// below: answered compounds
* Nc1cc(Cl)c(NC2=NCCN2)c(Cl)c1 | FALSE
* CCN(CC)CCNC(=O)COc1ccc(Cl)cc1 | FALSE
* CC(C)COC(=O)OCN1C(=O)CN(CCN2CC(=O)N(COC(=O)OCC(C)C)C(=O)C2)CC1=O | FALSE
* CN1CCC[C@@H]1c1cccnc1 | FALSE

Look up the recorded call for Oc1c(I)cc(I)c2cccnc12 in this test.
TRUE

Look up the recorded call for CCC(=O)c1c(O)cc(O)cc1O in this test.
FALSE

Look up the recorded call for NC(CO)(CO)CO in this test.
FALSE

Look up the recorded call for CCN(CCCc1ccccc1)CCCc1ccccc1 in this test.
FALSE

Look up the recorded call for C[C@]12CCC(=O)C=C1CC[C@H]1[C@@H]3CC[C@](O)(C(=O)CO)[C@@]3(C)C[C@H](O)[C@@]12F in this test.
FALSE

Look up the recorded call for CC1(C)CCC(NC(=O)[C@@H](N)CCC(=O)O)CC1 in this test.
FALSE

Look up the recorded call for C[C@H](O)C(=O)Nc1c(I)c(C(=O)NC(CO)CO)c(I)c(C(=O)NC(CO)CO)c1I in this test.
FALSE

Look up the recorded call for CC(C)(CO)[C@@H](O)C(=O)NCCCO in this test.
FALSE

###

test system: TAB165; assay: qHTS profiling for inhibitors of Plasmodium falciparum proliferation (AID 504749); further: nearly all actives have a fitted effect of over 60% in size; conditions: P. falciparum in erythrocytes, SYBR Green DNA, 72 h; series mostly up to 28.7 µM
Results filed as inconclusive are left out. Calls of active or inactive are those of the source. The call rests on the fitted dose curve; in most records, active means well fitted inhibition curve with a large enough effect; inconclusive means small, poorly fitted or top-dose-only effect; inactive means flat fitted curve, though single readings scatter.
// one of True = active, False = inactive, no free text

* CCCCOc1cc(C(=O)NCCN(CC)CC)c2ccccc2n1 | False
* O=c1c(-c2ccccc2)c1-c1ccccc1 | True
* CCOc1ccc(NC(=O)CC(C)O)cc1 (stereo not drawn) | False
* OCc1ccccc1O | False
* Cc1c(C)n(Cc2ccccc2)c2ccc(C(=O)OCCN(C)C)cc12 | False
* COC1=CC(=O)C[C@@H](C)[C@]12Oc1c(Cl)c(OC)cc(OC)c1C2=O | False
* Nc1ccc(C(=O)Nc2ccccc2N)cc1 | False
* C=C(CC)C(=O)c1ccc(OCC(=O)O)c(Cl)c1Cl | True
* OC(CCN1CCCCC1)(c1ccccc1)c1ccccc1 | True
* C[C@]12CCC(=O)C=C1CC[C@H]1[C@@H]3CC[C@](O)(C(=O)CO)[C@@]3(C)C[C@H](O)[C@@]12F | False

Look up the recorded call for CC(C)NC[C@@H](O)COc1cccc2ccccc12 in this test.
True

Look up the recorded call for CN(C)CC/C=C1\c2ccccc2Sc2ccc(Cl)cc21 in this test.
True

Look up the recorded call for CCCCCCCCCCCCCCNCCO in this test.
False

###

test system: C2A; assay: qHTS profiling for inhibitors of Plasmodium falciparum proliferation (AID 504749); further: nearly all actives have a fitted effect of over 60% in size; conditions: P. falciparum in erythrocytes, SYBR Green DNA, 72 h; series mostly up to 28.7 µM
Inconclusive results are not listed. The source made the active and inactive calls. Calls follow the shape of the dose curve; as a rule, active = well fitted inhibition curve with a large enough effect; inconclusive = small, poorly fitted or top-dose-only effect; inactive = flat fitted curve, though single readings scatter.
// one of active, inactive, no free text

// below: answered molecules
- CCN1CCCC1=O: inactive
- C[C@H](O)C(=O)Nc1c(I)c(C(=O)NC(CO)CO)c(I)c(C(=O)NC(CO)CO)c1I: inactive

Now let's try a different one.
Look up the recorded call for COc1cc(NS(C)(=O)=O)ccc1Nc1c2ccccc2nc2ccccc12 in this test.
active

###

tested on: AS120; test: qHTS profiling for inhibitors of Plasmodium falciparum proliferation (AID 504749); further: nearly all actives have a fitted effect of over 60% in size; settings: P. falciparum in erythrocytes, SYBR Green DNA, 72 h; series mostly up to 28.7 µM
Results filed as inconclusive are left out. Calls of active or inactive are those of the source. Calls follow the shape of the dose curve; as a rule, active = well fitted inhibition curve with a large enough effect; inconclusive = small, poorly fitted or top-dose-only effect; inactive = flat fitted curve, though single readings scatter.
// one of active, inactive, no free text

Look up the recorded call for CN=C(NC#N)NCCSCc1csc(N=C(N)N)n1 in this test.
inactive

Look up the recorded call for COc1cccc2c1C(=O)c1c(O)c3c(c(O)c1C2=O)C[C@@](O)(C(C)=O)C[C@@H]3O[C@H]1C[C@H](N)[C@H](O)[C@H](C)O1 in this test.
active

###

tested on: CP260; assay: qHTS profiling for inhibitors of Plasmodium falciparum proliferation (AID 504749); further: nearly all actives have a fitted effect of over 60% in size; further: potency means the concentration at half of the fitted maximal effect; conditions: P. falciparum in erythrocytes, SYBR Green DNA, 72 h; series mostly up to 28.7 µM
Inconclusive results are not listed. Active and inactive are the calls of the source. The call rests on the fitted dose curve; in most records, active means well fitted inhibition curve with a large enough effect; inconclusive means small, poorly fitted or top-dose-only effect; inactive means flat fitted curve, though single readings scatter.
measuredQuantity: Potency

• CCC(=O)c1c(O)cc(O)cc1O = inactive
• CN1C2CCC1CC(OC(=O)c1c[nH]c3ccccc13)C2 (stereo not given) = inactive
• C#C[C@]1(O)CC[C@H]2[C@@H]3CCc4cc(OC5CCCC5)ccc4[C@H]3CC[C@@]21C = inactive
• O=C(CCCN1CCC(O)(c2ccc(Br)cc2)CC1)c1ccc(F)cc1 = 3.55 µM (active)
• COc1cc2c(cc1OC)C(=O)C(CC1CCN(Cc3ccccc3)CC1)C2 (stereo not given) = inactive
• COc1ccc(/C=C/C(=O)c2ccc(OC)cc2OC)cc1 = 8.91 µM (active)
• O=C(OCCOCCO)c1ccccc1Nc1cccc(C(F)(F)F)c1 = inactive
• CC(C)(C)CC(C)(C)c1ccc(OCCOCC[N+](C)(C)Cc2ccccc2)cc1 = 1.41 µM (active)

The compound O=C1CCC(c2ccc(-n3ccnc3)cc2)=NN1 on CP260: Potency was inactive

The compound O=C(N/N=C/c1ccccc1O)c1ccncc1 on CP260: Potency was 5.01 µM (active)

The compound CCN(CC)C(=O)/C(C#N)=C/c1cc(O)c(O)c([N+](=O)[O-])c1 on CP260: Potency was inactive

The compound Oc1c(Cl)cc(Cl)cc1Sc1cc(Cl)cc(Cl)c1O on CP260: Potency was inactive

The compound CC(C)NC[C@@H](O)COc1cccc2ccccc12 on CP260: Potency was 12.6 µM (active)
